These measurements were taken from the supplement of paper PMC12636033.

System: muMax20 (Max(13-93) K31hArg/K57hArg, M65Nle)
Test: PBM 8-mer E-score (E-score (rank enrichment, -0.5 to 0.5)); higher = stronger preferential binding
The full ranking holds about 33,000 sequences; the median of “E-score (rank enrichment, -0.5 to 0.5)” is about -0.0068, and the highest 2% start at about 0.24. The sample as a whole holds a higher share of the highest values than the screen did.
measured attribute: PBM 8-mer E-score

AGACTGGG | -0.147
TAATTTGA | 0.0569
AAAATGGG | -0.088
GACAAATA | 0.0845
CGCGCTCC | -0.0678
GAAAAATA | 0.158
GACAAAAA | 0.144
GCACAACC | -0.23
CGCGAACC | -0.249
GATGTATA | 0.103
CAGTGGGA | -0.0398
AAAATATA | 0.21
ACCTAGAT | -0.0454
AGAATATC | 0.129
AACAAAAT | 0.275
GTACTAAA | 0.108
CAAGGTAA | 0.0156
AAACAAAT | 0.284
AAACTATA | 0.192
TAAGAGAA | -0.0222
AAATCAAA | 0.262
CATAAATG | -0.0552
ACTGTATA | 0.255
AAACAAAC | 0.154
AATAAATC | 0.0155
AAATCGTA | 0.248
CCCTTATA | 0.199
AAGCCTAG | 0.0589
AATGTATA | 0.279
AAAGTATA | 0.315
AACAAGTC | 0.141
AAAATGGA | 0.298
GACGTTGA | 0.0147
ATCAAAAT | 0.0188
CAACAATC | 0.0661
CCGGACCC | -0.294
AACAAAAA | 0.14
TAGATACA | 0.143
CAACAATG | 0.137
AACTCAGT | -0.0615
ATCAAAAA | 0.284
CAATCGTA | 0.18
AACAAGAT | 0.22
ACCACAGG | -0.113
AGAAGCAA | 0.1
TAATCGTA | 0.162
CCTGTATA | 0.116
AATGCGTA | 0.0783
ATGTCTAC | -0.0533
ACGGGAGT | 0.0635
CATCTTCC | 0.14
CGAATATA | 0.237
TGGGTTAA | 0.053
CAGACGCG | -0.145
CTACATAG | 0.138
TTAAGGAA | 0.0354
TACAAATA | 0.313
AGACAATA | 0.298
TTACTAAA | 0.123
CGGTCCTA | -0.17
AAACATAG | 0.126
ACCAGAAC | 0.0216
ATACAAGA | 0.0614
CTACTAAC | 0.237
ATCAAACA | 0.29
CAACTAAG | 0.0637
GCGGATAA | -0.0466
ACACATAG | -0.0133
CAAATATA | 0.162
CCTTGTAC | 0.176
GAACAATA | 0.0766
CTTGTATA | 0.136
GGCAGAAA | 0.135
GAGTCGTA | 0.0328
ACACATAA | 0.265
GATAAATA | 0.149
CAAGTATA | 0.187
CAAAAATA | 0.176
AGAATATA | 0.254
CAACTATA | 0.108
CGAAAATA | 0.00928
AAATCAAT | 0.192
GTACAAGA | 0.119
CAATTGTG | 0.0641
